# Tested on: Brain
# Run description: Antioxidant activity in Wistar rat brain assessed as inhibition of lipid peroxidation
# Assay type: functional, tissue-based
The following compounds are listed with their measured pIC50 values.
Give only the number. pIC50 is defined as minus log10 of concentration in molar units.

Below: 5 compounds and their reported pIC50.
Compound	pIC50
O=C1/C(=C/c2ccc(O)c(O)c2)COc2cc(O)ccc21 [SAPPANONE A]	4.84
Cc1c(C)c2c(c(C)c1O)CCC(C)(C(=O)O)O2 (configuration not stated) [TROLOX]	4.38
COc1ccc2c(c1)OC/C(=C\c1ccc(O)c(O)c1)C2=O	4.92
COc1ccc2c(c1)OC/C(=C\c1cc(OC)c(O)c(OC)c1)C2=O	4.96
CCCOc1ccc2c(c1)OC/C(=C\c1ccc(O)c(O)c1)C2=O	4.94

Problem: Field: pIC50 (Brain). Entry: CCCCOc1ccc2c(c1)OC/C(=C\c1ccc(O)c(O)c1)C2=O
Solution: 4.96

Problem: Field: pIC50 (Brain). Entry: CCOc1ccc2c(c1)OC/C(=C\c1ccc(O)c(O)c1)C2=O
Solution: 4.93

* * *

# Test system: Brain
# Run description: Antioxidant activity in Wistar rat brain assessed as inhibition of lipid peroxidation
# Assay type: functional, tissue-based
The following molecules are listed with their measured IC50 values.

COc1ccc2c(c1)OC/C(=C\c1ccccc1OC)C2=O > 100 µM
O=C1/C(=C/c2ccc(O)cc2)COc2cc(O)ccc21 > 100 µM
COc1ccc(/C=C2\COc3cc(OC)ccc3C2=O)cc1 > 100 µM
COc1ccc2c(c1)OC/C(=C\c1ccc(O)cc1)C2=O > 100 µM

Now turn to the next molecule.
Problem: Field: IC50 (Brain). Entry: COc1cccc(/C=C2\COc3cc(OC)ccc3C2=O)c1
Solution: > 100 µM
